# assay-overview: rapamycin-like changes in RPL19A-GFP expression – cell-based, S. cerevisiae, multiplex flow cytometry, primary screen (AID 1862);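 note: lower values mimic rapamycin by blocking the RPL19A rise seen in DMSO cells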
# condition-summary: S. cerevisiae RPL19A-GFP strain, flow cytometry fluorescence, 3 h; at 10 µM; hits give low values
Results filed as inconclusive are left out. Activity calls are given as the source filed them. Cut-off read from the data, not from the text of the source: active = percent of DMSO control GFP below about 86%; inactive = the rest, inconclusive results apart.
The entries below come with measured percent of DMSO control GFP values attached.

{"columns": ["compound", "percent of DMSO control GFP"],
 "data": [
  ["CC(=O)Oc1cc2oc(=O)cc(C)c2cc1OC(C)=O", "101% (inactive)"],
  ["NC(=O)C1CCCNC1 (centres undefined)", "106% (inactive)"],
  ["O=Cc1ccc(O)c(O)c1", "106% (inactive)"],
  ["O=C1ON=C(c2ccc(Cl)cc2)/C1=C/c1ccc(O)cc1", "108% (inactive)"],
  ["CC(=O)[C@H]1CC[C@H]2[C@@H]3CCC4=CC(=O)CC[C@]4(C)[C@H]3[C@H](O)C[C@]12C", "93% (inactive)"],
  ["C[C@H]1O[C@@H](O[C@H]2[C@@H](O)C[C@H](O[C@H]3[C@@H](O)C[C@H](O[C@H]4CC[C@@]5(C)[C@H](CC[C@@H]6[C@@H]5C[C@@H](O)[C@]5(C)[C@@H](C7=CC(=O)OC7)CC[C@]65O)C4)O[C@@H]3C)O[C@@H]2C)C[C@H](O)[C@@H]1O", "100% (inactive)"],
  ["CC(=O)CC(c1ccc([N+](=O)[O-])cc1)c1c(O)c2ccccc2oc1=O (centres undefined)", "107% (inactive)"],
  ["Cc1ccc2c(c1)c(=O)c1c3n2CCN(C(=O)CCl)C3CC1 (centres undefined)", "96.3% (inactive)"],
  ["COc1ccc(OCc2cccc(C(=O)NN)c2)cc1", "94.8% (inactive)"],
  ["CC(C)c1ccc(NC(=O)CNS(=O)(=O)c2ccc(F)cc2)cc1", "99.3% (inactive)"],
  ["CCCC(=O)Nc1ccccc1NC(C)=O", "101% (inactive)"],
  ["COc1ccc(C(=O)CC2OC(=O)c3c2ccc(OC)c3OC)cc1 (centres undefined)", "106% (inactive)"],
  ["C=CCC1(O)C(=O)N2C(=C1C(=O)N1CCOCC1)c1ccccc1CC2(C)C (centres undefined)", "99.4% (inactive)"],
  ["CC(C)CC(NC(=O)CNC(=O)C1O[C@@H]2OC(C)(C)O[C@@H]2[C@H]2OC(C)(C)O[C@@H]12)C(=O)O (some centres undefined)", "101% (inactive)"],
  ["CC(NC(=O)OCc1ccccc1)C(=O)N1CC(O)CC1C(=O)O (centres undefined)", "103% (inactive)"],
  ["Cn1cc(CN2CCN(CCO)CC2)c(-c2ccc(Oc3ccccc3)cc2)n1", "102% (inactive)"],
  ["COC(=O)C1=NN(C(=O)c2cccc(Br)c2)C(O)(c2ccc(Cl)cc2)C1 (centres undefined)", "100% (inactive)"],
  ["CC(C)(C)N1NC2(CCCCC2)NC1=S", "99.8% (inactive)"],
  ["O=C(O)C1Cc2ccccc2CN1S(=O)(=O)c1ccccc1 (centres undefined)", "98.8% (inactive)"],
  ["Cc1ncc(CN2CCC(CO)(CCc3ccccc3)CC2)s1", "101% (inactive)"],
  ["O=Cc1ccc(OC(=O)c2cccnc2)cc1", "101% (inactive)"],
  ["Nc1nc2c(nc(SCc3ccccc3Br)n2C2OC(CO)C(O)C2O)c(=O)[nH]1 (centres undefined)", "102% (inactive)"],
  ["COc1ccc(CNCCC2(C(C)C)CCOC(C)(C)C2)cc1 (centres undefined)", "99.2% (inactive)"],
  ["O=C1C(=O)N2C(=C1C(=O)N1CCCCCC1)c1ccccc1CC21CCCC1", "92.2% (inactive)"],
  ["CC1(C)CC(=O)c2cn3c(nc2C1)nc1ccccc13", "102% (inactive)"],
  ["C[N+](C)(C)CCCC(=O)c1ccc2c(c1)OCO2", "94.4% (inactive)"],
  ["Cc1nc2ccccc2n1CC(=O)NC1CCCC1", "101% (inactive)"],
  ["COc1cccc2c(=O)c(C/C=C(/C)Cl)c(C)[nH]c12", "107% (inactive)"],
  ["O=C(CS(=O)(=O)c1ccccc1)c1ccc2c(c1)OCCO2", "99.7% (inactive)"],
  ["CC(=O)Nc1ccccc1O", "87.8% (inactive)"],
  ["Cn1nnnc1SCC1=C(C(=O)O)N2C(=O)[C@@H](NC(=O)[C@H](O)c3ccccc3)[C@H]2SC1", "97.7% (inactive)"],
  ["COc1cc2c(cc1OC)CN(C(=O)c1ccc(S(=O)(=O)N(C)c3ccccc3)cc1)CC2", "95.9% (inactive)"],
  ["CC(C)=CCC(C)(C)/C=N/NC(N)=O", "101% (inactive)"],
  ["CC1(C)Cc2ccccc2-c2nc(-c3ccccc3)oc(=O)c21", "102% (inactive)"],
  ["CC(=O)N1CCN(c2ccc(NC(=O)/C=C/c3ccccc3)cc2)CC1", "103% (inactive)"],
  ["CC(C)CN1CCN(Cc2ccc(C#CC(C)(C)O)cc2)CC1CCO (centres undefined)", "92% (inactive)"],
  ["CC1Cc2ccccc2N1NC(=O)c1ccc(Cl)c(S(N)(=O)=O)c1 (centres undefined)", "105% (inactive)"],
  ["COc1cc2c(cc1OC)C(c1ccc(-c3cc(Cl)ccc3Cl)o1)=NCC2", "102% (inactive)"],
  ["Cc1ccc2c(c1)C(O)(C1COC(C)(C)CC1=O)C(=O)N2C (centres undefined)", "107% (inactive)"],
  ["Nc1nc(Cl)nc2c1ncn2[C@@H]1O[C@H](CO)[C@@H](O)[C@H]1O", "92.4% (inactive)"],
  ["CC(C)(C)C(=O)NC(=S)NNC(=O)c1ccncc1", "98.2% (inactive)"],
  ["COc1ccc(-c2csc(-c3cccnc3)n2)cc1C", "98.2% (inactive)"],
  ["CCc1oc2ccccc2c1C(=O)c1cc(Br)c(O)c(Br)c1", "92.2% (inactive)"],
  ["CC(C)[C@H](NC(=O)[C@@H]1CSCN1C(=O)OC(C)(C)C)C(=O)NCC1CCC(C(=O)O)CC1 (some centres undefined)", "99.7% (inactive)"]
]}

###

# vesicle binding response annotations
# assay-overview: reduced mouse 2C T cell binding to pMHC/ICAM-1 vesicles – MLPCN validation set, flow cytometry, LFA-1/ICAM-1 modulator project, pilot screen (AID 2523);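 note: mean PE anti-B7-1 fluorescence of CD8+ cells relative to row control; 100% = QL9-loaded vesicles with DMSO vehicle in the same plate row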
# condition-summary: 2C mouse CD8+ T cells, at 7 µM, hits give low values
Calls of active or inactive are those of the source.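 The calls were made as follows: active = response below a set limit, under 55% cells CD8-positive and vesicle-bound, and CD8 cells' 90th-percentile brightness under 279; inactive = the rest.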

{"columns": ["compound", "vesicle binding response"],
 "data": [
  ["Cc1ccc(Cl)c(Nc2ccccc2C(=O)O)c1Cl", "123% (inactive)"],
  ["CCc1cc2c(=O)c(-c3nc(C)cs3)c(CCCC(=O)O)oc2cc1O", "39.1% (active)"],
  ["CC(C)CCC1(CCNC(C)c2cccs2)CCOC(C)(C)C1 (stereo unspecified)", "1220% (inactive)"],
  ["CCOc1ccc2nc(S(N)(=O)=O)sc2c1", "103% (inactive)"],
  ["CC(=O)Nc1ccc(S(=O)(=O)c2ccc(N)cc2)cc1", "203% (inactive)"],
  ["COc1ccc(NC(=O)CC2C(=O)N(C)C(=S)N2Cc2ccncc2)cc1 (stereo unspecified)", "194% (inactive)"],
  ["Cc1ccc2ncnc(NCCCCCC(=O)O)c2c1", "130% (inactive)"],
  ["CC1(C)[C@@H](O)CC[C@]2(C)[C@H]3C(=O)C=C4[C@@H]5C[C@@](C)(C(=O)O)CC[C@]5(C)CC[C@@]4(C)[C@]3(C)CC[C@@H]12", "698% (inactive)"],
  ["Cc1ccc(-c2nnc(-c3ccc4c(c3)OCO4)o2)cc1", "165% (inactive)"],
  ["CC(C)C(=O)Nc1c(O)c2ccccc2[nH]c1=O", "220% (inactive)"],
  ["Cn1c(=O)c2[nH]cnc2n(C)c1=O", "159% (inactive)"]
]}

###

# assay-overview: calorie-restriction mimetic ROS inhibitors, yeast – validation compound set, pilot screen (AID 2706);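 note: yeast exposed to compound for one week at 30 degrees C before staining; 100% = mean of all compound wells on the same plate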
# condition-summary: S. cerevisiae aging, superoxide DHE fluorescence; at 10 µM; hits give low values

{"columns": ["compound", "superoxide response (% of plate), %"],
 "data": [
  ["CC(C)Oc1cccc(C(=O)N2CCCC2)c1", 101],
  ["Nc1nnc(CSCc2ccc(Cl)cc2Cl)s1", 95.2],
  ["CCn1ccnc1CN(C)Cc1cn(-c2cccc(C)c2)nc1-c1cccc(F)c1", 102],
  ["COc1ccc2c(c1O)Cc1ccccc1C2=O", 117],
  ["O=C(CCSc1ccccc1)N1CCCC1", 109],
  ["CCOC(=O)N1c2ccccc2C=CC1OCC (configuration not stated)", 110],
  ["CC(C)=CCCC1=CCC2C(=O)NNC(=O)C2C1 (configuration not stated)", 104]
]}
